These data points were gathered from PubChem BioAssay.

# assaySummary: E. coli DRC41 culture turbidity changes, primary screen, E. coli filamentation inducer project, strain DRC41, OD650, 48 h (AID 1152);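 also: E. coli MC1000 strain DRC41 lacking acrAB efflux pump and sulA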
# conditionDetails: E. coli DRC41 (acrAB sulA), higher = more signal, called active from +8 up or from −8 down

[
  {
    "smilesString": "COc1ccc([Si](C)(C)[C@H]2[C@H](CC(=O)N3CCC[C@H]3CO)O[C@@]3(C(=O)N(Cc4ccc(N5CCC5=O)cc4)c4ccccc43)[C@@H]2C)cc1",
    "z-score": -0.691
  },
  {
    "smilesString": "CCOC(=O)C1=C[C@@H](c2ccccc2)N(S(=O)(=O)c2ccc(C)cc2)[C@H]1c1ccccc1",
    "z-score": -0.388
  },
  {
    "smilesString": "NCCCCCNC(=O)[C@@H]1C[C@@H]2C(=O)N3CCC[C@H]3C(=O)N2[C@@H]1c1ccc(O)cc1",
    "z-score": 0.524
  },
  {
    "smilesString": "C=C(/C(=C/C[C@@H](OC(C)=O)c1ccc(OCCO)cc1)c1cc(C(=O)OC)ccc1OC)C(C)C",
    "z-score": -0.2
  }
]

###

# assaySummary: binders of probe aHhip on microarray, primary screen, stem cell growth factor project, biochemical, small-molecule microarray, fluorescence 635/667 (AID 1087);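 also: score merges spot fluorescence at 667nm with spot signal to noise ratio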
# conditionDetails: higher = more signal
Would you please tag the item criterion met when its composite z-score is 0.1 or above, and criterion not met when it is below?

[
  {
    "molecule": "COC(=O)[C@@]1(Cc2ccc(F)cc2)[C@H]2c3cc(C(=O)N(C)C)n(Cc4ccc(O)c(OC)c4)c3C[C@H]2CN1C(=O)c1ccccc1",
    "assignedClass": "criterion met"
  },
  {
    "molecule": "C=CCN1C(=O)[C@@]2(O[C@@H](CCO)[C@H]([Si](C)(C)c3ccc(OC)cc3)[C@H]2C)c2cc(N3CCOC3=O)ccc21",
    "assignedClass": "criterion not met"
  },
  {
    "molecule": "C=CCOC(=O)[C@H]1[C@@H]2C(=O)O[C@@H](c3ccccc3)[C@@H](c3ccccc3)N2[C@@H](c2ccc(OCCOC(=O)[C@H]3C[C@H]4C(=O)N[C@@H](CCCCNC(C)=O)C(=O)N4[C@H]3c3cccc(OCCO)c3)cc2)[C@]12C(=O)Nc1ccc(I)cc12",
    "assignedClass": "criterion met"
  },
  {
    "molecule": "NC(=O)[C@H]1[C@@H]2C(=O)O[C@@H](c3ccccc3)[C@@H](c3ccccc3)N2[C@@H](c2ccc(O)cc2)[C@]12C(=O)Nc1ccc(C#CC3=CCCCC3)cc12",
    "assignedClass": "criterion not met"
  },
  {
    "molecule": "CN1C(=O)C2C=CC(C(O)c3ccc(I)cc3)N(Nc3ccccc3)C2C1=O (stereo unspecified)",
    "assignedClass": "criterion met"
  },
  {
    "molecule": "CC(C)C(=C=CC[C@@H](O)c1cccc(OCCO)c1)C[C@@H](O)c1ccccn1",
    "assignedClass": "criterion not met"
  }
]

###

# assaySummary: compound binding in COS7 lysate, probe aLAP1, primary screen, cell lysate, small-molecule microarray (AID 1124);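 also: lysate comes from COS7 cells expressing LAP1 and is applied at 0.3 µg/mL; score merges spot fluorescence near 667 nm with signal-to-noise over triplicate slides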
# conditionDetails: probe aLAP1, fluorescence, higher = more signal
Rule: composite z-score under 0.5 gives Criterion not met, otherwise Criterion met.

[
  {
    "compound": "CC(C)C[C@@H]1NC(=O)CNC(=O)[C@@]23C(=O)N[C@@H](Cc4ccccc4)C2[C@H](C)[C@@]2(C)O[C@H]2C3/C=C/C/C=C\\CNC1=O (stereo not given in full)",
    "assignedClass": "Criterion not met"
  },
  {
    "compound": "C=CCC(OC(C)=O)[C@@H]1[C@@H](N(Cc2ccc(-c3cccc(C(F)(F)F)c3)o2)C(=O)c2ccc(C)cc2)c2cc(OCCCO)ccc2N1C(=O)Cc1ccc(OC)cc1 (stereo not given in full)",
    "assignedClass": "Criterion not met"
  },
  {
    "compound": "COCCCNC(=O)[C@@]1(c2ccc([N+](=O)[O-])cc2)CC(=O)N(C(C)C)[C@@H]1c1ccc(CO)cc1",
    "assignedClass": "Criterion met"
  },
  {
    "compound": "CC(=O)NCCCC[C@@H]1NC(=O)[C@H]2C[C@@H](C(=O)NCCCCCNC(=O)CS)[C@@H](c3cccc(OCCO)c3)N2C1=O",
    "assignedClass": "Criterion not met"
  },
  {
    "compound": "C=C[C@@H](C)[C@@H](OC(=O)Nc1ccc(SC)cc1)c1ccc(OCCO)cc1",
    "assignedClass": "Criterion not met"
  },
  {
    "compound": "CC(C)C(=C=CC[C@@H](O)c1cccc(OCCO)c1)C[C@@H](O)c1ccccn1",
    "assignedClass": "Criterion met"
  },
  {
    "compound": "COc1ccc([Si](C)(C)[C@H]2[C@H](CCO)O[C@@]3(C(=O)N(Cc4ccc(N5C(=O)c6ccccc6Oc6ccccc65)cc4)c4ccccc43)[C@@H]2C)cc1",
    "assignedClass": "Criterion not met"
  },
  {
    "compound": "COc1cc(NN2C(C(O)C3CCCCC3)C=CC3C(=O)N(c4ccccc4)C(=O)C32)cc(OC)c1OC (stereo not given)",
    "assignedClass": "Criterion met"
  },
  {
    "compound": "COCCOC(=O)N1C(=O)[C@@]2(c3cc(C#CCCO)ccc31)[C@H](C(N)=O)[C@H]1C(=O)O[C@H](c3ccccc3)[C@H](c3ccccc3)N1[C@@H]2c1ccc(OCCO)cc1",
    "assignedClass": "Criterion met"
  },
  {
    "compound": "O=C1OCC=C[C@H]2OC34C=CCN(c5ccc6ccccc6c5)C(=O)[C@H]3N(CCCCCO)C(=O)[C@@H]4[C@@H]12 (stereo not given in full)",
    "assignedClass": "Criterion not met"
  },
  {
    "compound": "CO[C@H]1O[C@H](CO)[C@@H](OC(=O)Nc2cccc(F)c2)[C@H](OC(=O)Nc2ccccc2-c2ccccc2)[C@H]1OC(=O)Nc1ccccc1-c1ccccc1",
    "assignedClass": "Criterion met"
  },
  {
    "compound": "CN1C(=O)[C@@H]2[C@@H](CC(COc3ccccc3)=C([C@H](O)CCc3ccccc3)[C@@H]2CO)C1=O",
    "assignedClass": "Criterion not met"
  },
  {
    "compound": "O=c1cccc(-c2ccc(F)cc2)o1",
    "assignedClass": "Criterion not met"
  },
  {
    "compound": "C=CCN1C(=O)[C@@]2(O[C@@H](CCO)[C@H]([Si](C)(C)c3ccc(OC)cc3)[C@H]2C)c2cc(N3CCOC3=O)ccc21",
    "assignedClass": "Criterion not met"
  }
]
